Tested on: C. krusei 193T
Run Description: MIC determination by AFST-EUCAST standard methodology
Assay type: cell-based
Condition Details: Pichia kudriavzevii, 24 h, visually and spectrophotometrically, read-out: Antifungal activity, expressed as MIC50
Where a name gives a salt, the structure may show the parent alone.
Assay Endpoint: MIC50 (µM)

Worked cases, MIC50 given:
N=C(NCCCCCCCCN1CCCCCCCCNC(=N)NC1=O)NCC1CC1 [Compound 15c, tri trifluoroacetate]: 10
C#CCNC(=N)NCCCCCCCCN1CCCCCCCCNC(=N)NC1=O.O=C(O)C(F)(F)F.O=C(O)C(F)(F)F.O=C(O)C(F)(F)F [Compound 15b, tri trifluoroacetate]: 40
N=C(NCCCCCCCCN1CCCCCCCCNC(=N)NC1=O)NCc1ccccc1 [Compound 15a, tri trifluoroacetate]: 10
CC(C)=CCNC(=N)NCCCCCCCCN1CCCCCCCCNC(=N)NC1=O [Compound 15e, tri trifluoroacetate]: 20

[a] C=C(C)CNC(=N)NCCCCCCCCN1CCCCCCCCNC(=N)NC1=O [Compound 15d, tri trifluoroacetate]
[b] OC(Cn1cncn1)(Cn1cncn1)c1ccc(F)cc1F [F, fluconazole, reference compound]
Of a and b , whose reported MIC50 is numerically smaller? Write down the label attached to your selection.
a
